Assay: PK study after intranasal administration
Assay type: in vivo, mice
Settings: female, ICR, mouse, plasma, inhaled or intranasal, 32.4 ug, Cmax, repeated (7 days) intranasal, 0.01 N HCl solution, 32.4 μg/10 μL, mice

givenSmiles	scaleUnit	Cmax at 7 days
CSc1cc(C)nc(SC)c1NC(=O)CN1CCN(CCSc2nc3ccccc3[nH]2)CC1.Cl	ng/mL	146

* * *

Experiment: Solubility studies of K-604 in different vehicles
Format: physicochemical
Conditions: GA aqueous solution (additive 4 mg, 0.04 M), pH 3.6, thermodynamic from solid

molecule	solubility at 24 h
CSc1cc(C)nc(SC)c1NC(=O)CN1CCN(CCSc2nc3ccccc3[nH]2)CC1.Cl [K-604]	10.8 mg/mL

* * *

Assay: PK study after intranasal administration
Type: in vivo, mice
Settings: female, ICR, mouse, plasma, inhaled or intranasal, 108 ug, T1/2, plasma, single intranasal, HA solution, 108 μg/10 μL, mice

compound	half-life (min)
CSc1cc(C)nc(SC)c1NC(=O)CN1CCN(CCSc2nc3ccccc3[nH]2)CC1.Cl [K-604]	17.4

* * *

Assay: PK study after intranasal administration
Format: in vivo, mice
Details: female, ICR, mouse, cerebrum, inhaled or intranasal, 108 ug, Cmax, single intranasal, CA solution, 108 μg/10 μL, mice

givenSmiles	Cmax [ng/g]
CSc1cc(C)nc(SC)c1NC(=O)CN1CCN(CCSc2nc3ccccc3[nH]2)CC1.Cl	47

* * *

Experiment: PK study after intranasal administration
Format: in vivo, mice
Details: female, ICR, mouse, olfactory bulb, inhaled or intranasal, 108 ug, Cmax, single intranasal, GA solution, 108 μg/10 μL, mice
quantityMeasured: Cmax (ng/g)

givenSmiles	endpointValue
CSc1cc(C)nc(SC)c1NC(=O)CN1CCN(CCSc2nc3ccccc3[nH]2)CC1.Cl	160

* * *

Assay: PK study after intranasal administration
Assay type: in vivo, mice
Conditions: female, Crl:CDI (ICR), mouse, plasma, other: intranasal, 32.4 μg, drug concentration in plasma, 15 min; repeated intranasal, 0.01 N HCl solution, 10 μL, mice

givenSmiles	concentration at 15 min / ng/mL
CSc1cc(C)nc(SC)c1NC(=O)CN1CCN(CCSc2nc3ccccc3[nH]2)CC1.Cl	90

* * *

Assay: PK study after intranasal administration
Type: in vivo, mice
Details: female, Crl:CDI (ICR), mouse, plasma, other: intranasal, 32.4 μg, drug concentration in plasma, 5 min; repeated intranasal, 0.01 N HCl solution, 10 μL, mice

compound	concentration at 5 min / ng/mL
CSc1cc(C)nc(SC)c1NC(=O)CN1CCN(CCSc2nc3ccccc3[nH]2)CC1.Cl [K-604]	142

* * *

Test: PK study after oral administration
Format: in vivo, mice
Details: female, ICR, mouse, plasma, po, 6 mg/kg

givenSmiles	Tmax
CSc1cc(C)nc(SC)c1NC(=O)CN1CCN(CCSc2nc3ccccc3[nH]2)CC1.Cl	15 min

* * *

Assay: PK study after intranasal administration
Assay type: in vivo, mice
Settings: female, ICR, mouse, cerebrum, inhaled or intranasal, 108 ug, Cmax, single intranasal, HA solution, 108 μg/10 μL, mice
quantityMeasured: Cmax (ng/g)

givenSmiles	quantityMeasured	scaleUnit	endpointValue
CSc1cc(C)nc(SC)c1NC(=O)CN1CCN(CCSc2nc3ccccc3[nH]2)CC1.Cl	Cmax	ng/g	39
